target: ZNF143 (UniProt P52747); assay: log2 fold change, soluble protein after heating vs DMSO (PISA); higher = thermal stabilisation; K562 cells, 10 uM, 30 min; active = over 0.2 and 3.5 SD of the protein, either way, in both replicates (recomputed)
Sequence (P52747 whole entry, looked up): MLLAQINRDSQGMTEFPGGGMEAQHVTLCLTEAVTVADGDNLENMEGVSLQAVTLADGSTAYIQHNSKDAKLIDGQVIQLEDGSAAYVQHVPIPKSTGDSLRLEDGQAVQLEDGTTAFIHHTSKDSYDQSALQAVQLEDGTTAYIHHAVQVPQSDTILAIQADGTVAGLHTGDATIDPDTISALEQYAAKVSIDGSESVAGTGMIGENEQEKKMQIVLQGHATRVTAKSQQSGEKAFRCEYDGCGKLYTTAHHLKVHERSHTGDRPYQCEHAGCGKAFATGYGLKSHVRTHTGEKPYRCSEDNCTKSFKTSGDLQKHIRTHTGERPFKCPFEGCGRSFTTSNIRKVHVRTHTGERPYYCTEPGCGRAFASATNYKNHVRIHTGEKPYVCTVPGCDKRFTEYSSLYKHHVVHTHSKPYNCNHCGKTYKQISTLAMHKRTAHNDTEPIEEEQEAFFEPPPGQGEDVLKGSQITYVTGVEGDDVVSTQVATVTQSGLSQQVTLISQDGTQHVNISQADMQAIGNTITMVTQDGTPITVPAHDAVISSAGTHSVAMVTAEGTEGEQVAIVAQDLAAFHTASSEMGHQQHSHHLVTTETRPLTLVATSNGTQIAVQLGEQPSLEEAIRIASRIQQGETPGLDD
Of roughly 7,900 targets only a part is listed; those with a hit were picked by preference. About 0.6% of all pairs of compound and target were hits.
reported-property: log2 fold change
Give bare numbers.

CC(=O)c1cnc2ccc(-c3cc(Cl)c(O)c(Cl)c3)nc2c1N[C@H]1CC[C@H](CN(C)C)CC1 ... -0.044

Give log2 fold change for each of the items listed below.
1. CNC(=O)c1ccccc1Nc1nc(Nc2ccc(N3CCOCC3)cc2OC)ncc1Cl
2. CON(C)C(=O)N1N=C(c2cc(F)ccc2F)S[C@@]1(CCCN)c1ccccc1 [filanesib]
3. O=C(Nc1cccc(Nc2ncc(Br)c(NCCc3cnc[nH]3)n2)c1)N1CCCC1

Result:
-0.084
0.024
-0.058
